target: human 5-HT7 receptor (Homo sapiens)
Sequence (P34969 whole entry): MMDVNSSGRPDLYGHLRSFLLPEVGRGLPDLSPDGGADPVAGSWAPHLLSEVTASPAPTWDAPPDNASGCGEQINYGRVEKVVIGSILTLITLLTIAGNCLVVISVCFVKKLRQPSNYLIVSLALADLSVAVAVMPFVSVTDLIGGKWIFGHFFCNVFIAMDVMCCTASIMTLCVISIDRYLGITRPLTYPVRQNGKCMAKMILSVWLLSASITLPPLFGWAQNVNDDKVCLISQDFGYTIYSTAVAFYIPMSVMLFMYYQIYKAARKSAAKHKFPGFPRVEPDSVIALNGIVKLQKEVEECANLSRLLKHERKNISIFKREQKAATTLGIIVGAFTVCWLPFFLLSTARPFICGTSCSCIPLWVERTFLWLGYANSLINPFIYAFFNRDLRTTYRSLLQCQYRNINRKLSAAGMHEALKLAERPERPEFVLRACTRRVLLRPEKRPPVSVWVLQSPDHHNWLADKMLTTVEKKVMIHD
measuredEndpoint: pKi
On this scale, pKi is minus log10 of a concentration expressed in M (mol/L).

Prompt: Enter reported pKi observed with human 5-HT7 receptor (Homo sapiens) for "O=C1COc2ccc(OCCCCN3CCN(c4cccc(Cl)c4Cl)CC3)cc2N1"
Completion: 8.30

###

target: human H1 receptor (Homo sapiens, UniProt P35367)
Sequence (P35367 whole entry): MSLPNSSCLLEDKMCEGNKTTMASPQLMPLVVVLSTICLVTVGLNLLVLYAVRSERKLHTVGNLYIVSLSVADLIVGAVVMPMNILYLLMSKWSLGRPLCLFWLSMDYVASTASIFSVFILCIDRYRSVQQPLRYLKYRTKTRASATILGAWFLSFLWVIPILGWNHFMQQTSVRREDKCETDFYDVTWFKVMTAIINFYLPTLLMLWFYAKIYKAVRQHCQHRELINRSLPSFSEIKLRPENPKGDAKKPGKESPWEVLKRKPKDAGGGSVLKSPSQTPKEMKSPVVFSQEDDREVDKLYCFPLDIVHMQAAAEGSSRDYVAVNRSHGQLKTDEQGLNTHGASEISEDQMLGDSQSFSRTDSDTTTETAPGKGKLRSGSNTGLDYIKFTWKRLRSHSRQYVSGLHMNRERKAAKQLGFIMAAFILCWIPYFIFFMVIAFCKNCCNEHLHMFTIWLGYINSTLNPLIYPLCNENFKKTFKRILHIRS
measuredEndpoint: Ki (nM)
Give just the numeric value; nM need not be written.

Prompt: For O=C1COc2ccc(OCCCCN3CCN(c4cccc(Cl)c4Cl)CC3)cc2N1 [PCC0104005] , what is its reported Ki?
Completion: 1.1

###

target: human 5-HT6 receptor (Homo sapiens)
Sequence (P50406 whole entry): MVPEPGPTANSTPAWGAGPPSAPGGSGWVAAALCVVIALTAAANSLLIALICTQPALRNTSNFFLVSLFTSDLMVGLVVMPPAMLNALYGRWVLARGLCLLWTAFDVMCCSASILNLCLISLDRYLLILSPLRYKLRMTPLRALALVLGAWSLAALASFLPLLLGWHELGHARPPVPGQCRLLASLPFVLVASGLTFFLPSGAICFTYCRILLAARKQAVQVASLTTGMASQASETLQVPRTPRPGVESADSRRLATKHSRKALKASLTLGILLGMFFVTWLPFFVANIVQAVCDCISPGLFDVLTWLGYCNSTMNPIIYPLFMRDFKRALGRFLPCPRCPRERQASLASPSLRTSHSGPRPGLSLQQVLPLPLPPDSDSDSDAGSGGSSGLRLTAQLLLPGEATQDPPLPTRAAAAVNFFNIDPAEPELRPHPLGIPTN
measuredEndpoint: Ki (µM)
Field: numeric (µM). Do not append units.

Prompt: API: value(readout= Ki, system= human 5-HT6 receptor (Homo sapiens), query= "O=C1COc2ccc(OCCCCN3CCN(c4cccc(Cl)c4Cl)CC3)cc2N1" )
Completion: 0.085
